Data origin, for the record: patent US4169150A

So I've got a bunch of molecules here, and I need their ED50 values.
- System: mice
- assay_name: Potentiation of thiopental hypnosis (sedation)
- Assay type: in vivo, mouse (ddY-type male mice)
- cond: Mus musculus, 1 h, PO, sodium thiopental 50 mg/kg i.p., sleeping time prolonged to two times
All answers are understood in mg/kg, so give the number only.

Query: What value of measured ED50 is listed for Cc1cc(C)n2c1CN=C(c1c(F)cccc1F)c1cc(Cl)ccc1-2 ?
Reply: 0.7

Query: For the molecule shown here, Cc1ccc2n1-c1ccc(Cl)cc1C(c1ccccc1Cl)=NC2 , give the reported ED50.
Reply: 2.8

Query: Which ED50 value is on record for Cc1cc(C)n2c1CN=C(c1ccccc1Cl)c1cc(Cl)ccc1-2 ?
Reply: 0.34

Query: Sample Cc1cc2n(c1C)-c1ccc(Cl)cc1C(c1ccccc1F)=NC2 — what was its ED50?
Reply: 10

Query: Using the record for CCc1cc2n(c1C)-c1ccc(Cl)cc1C(c1ccccc1Cl)=NC2 , report its ED50.
Reply: 0.8

Query: Which ED50 is listed for CN1C(=O)CN=C(c2ccccc2)c2cc(Cl)ccc21 [Diazepam, reference compound] ?
Reply: 0.3

Query: Can you look up the measured ED50 of Cc1cc(C)n2c1CN=C(c1ccccc1F)c1cc(Cl)ccc1-2 for me?
Reply: 2.4

Query: For the molecule c1ccc(C2=NCc3cccn3-c3ccccc32)cc1 [Comparison (R5=H, R6=H, R7=H), reference compound] , what ED50 is on record?
Reply: 55

Query: What ED50 value was documented for this molecule, Cc1ccc2n1-c1ccc(Cl)cc1C(c1ccccc1F)=NC2 ?
Reply: 6.9

Query: Need ED50, item CCc1cc2n(c1C)-c1ccc(Cl)cc1C(c1ccccc1F)=NC2
Reply: 2.2

Query: Which ED50 reading was recorded for the molecule CCc1cc2n(c1C)-c1ccc(Cl)cc1C(c1c(F)cccc1F)=NC2 ?
Reply: 1.9

Query: Look at this molecule and give its reported ED50. Cc1cc2n(c1C)-c1ccc(Cl)cc1C(c1ccccc1)=NC2
Reply: 21

Query: For the molecule shown here, Clc1ccc2c(c1)C(c1ccccc1Cl)=NCc1cccn1-2 [Comparison (R5=Cl, R6=Cl, R7=H), reference compound] , give the reported ED50.
Reply: 18

Query: What measured ED50 goes with Cc1cc2n(c1C)-c1ccc(Cl)cc1C(c1ccccc1Cl)=NC2 ?
Reply: 2.6

Query: So what's the measured ED50 for this one? Clc1ccc2c(c1)C(c1ccccc1)=NCc1cccn1-2 [Comparison (R5=Cl, R6=H, R7=H), reference compound]
Reply: 44
